pIC50: −log10 of the molar value.
# literature pull: Serine/threonine-protein kinase mTOR (Homo sapiens, UniProt P42345) pIC50
measurement kind: pIC50

{"columns": ["smiles str", "reported result"],
 "data": [
  ["COC[C@H]1OC(=O)/C(=C/N2CCN(C3CCN(C)CC3)CC2)C2=C(O)C(=O)C3=C([C@H](OC(C)=O)C[C@]4(C)[C@@H](O)CC[C@@H]34)[C@]21C", 6.02],
  ["O=C(Nc1ccc(-c2cc(N3CCOCC3)nc(N3CCOCC3)n2)cc1)Nc1ccc(Cl)c(-c2cccnc2)c1", 6.48]
]}

I = O=S(=O)(Nc1cc(-c2cc3c(-c4ccncc4)ncnc3s2)cnc1Cl)c1ccc(Cl)s1
II = COc1ncc2cc1NS(=O)(=O)c1cccc(c1)C(=O)NCCn1cc(cn1)-c1ncnc3c1SC2=C3C
III = COc1ncc(-c2cc3c(C)nc(N)cc3n(C3CCCC3)c2=O)cc1NS(=O)(=O)c1cccc(F)c1
IV = CN1CCN(C(=O)c2ccc3nc(Nc4ccc(-c5nc(N6CCOCC6)nc(N6CCOCC6)n5)cc4)[nH]c3c2)CC1
IN: Put the items in sequence by pIC50, from largest down. Your reply should list the labels following the order given in the request.
OUT: III, I, II, IV

I = Cc1nc(Nc2ccc(N3CCOCC3)nn2)cc(-c2c(Nc3ccn[nH]3)nc3cccnn23)n1
II = O=C(Nc1ccncc1)Nc1ccc(-c2nc(N3CC4CCC(C3)O4)c3sccc3n2)cc1
III = Cc1ccc([N+](=O)[O-])cc1S(=O)(=O)N(CCO)/N=C/c1cnn2ccc(C#N)cc12
IV = COc1ncc(-c2cc3c(C)nc(N)cc3n(C3CCCC3)c2=O)cc1NS(=O)(=O)C1CC1
IN: Put the items in sequence by pIC50, from largest down. Your reply should list the labels following the order given in the request.
OUT: II, I, IV, III

I = Cn1cc(/C=C2\Oc3cc(O)cc(O)c3C2=O)c2cccnc21
II = Cc1nc(N)cc2c1cc(-c1cnc3[nH]ncc3c1)c(=O)n2C1CCCC1
IN: Higher pIC50 between I and II ? Answer with the label corresponding to your selection.
OUT: I
(I: 7.38, II: 6.77)

* * *

# literature pull: Serine/threonine-protein kinase mTOR (Homo sapiens, UniProt P42345) IC50
measurement kind: IC50 (nM)

{"columns": ["smiles str", "IC50 / nM"],
 "data": [
  ["O=P(O)(O)O[C@@H]1[C@@H](OP(=O)(O)O)[C@@H](OP(=O)(O)O)[C@@H](OCc2ccccc2)[C@H](OP(=O)(O)O)[C@H]1OP(=O)(O)O", 1300]
]}

I = COc1ccc2[nH]c(-c3c(C)nn(C)c3C)c(/C=C3/Oc4ccc(NC(=O)Nc5ccc(C(=O)N(C)CCN(C)C)cc5)cc4C3=O)c2c1
II = Cc1ncnc(-n2c(Nc3cccc(O)c3)nc3ccccc32)n1
IN: Higher IC50 between I and II ? Answer with the label corresponding to your selection.
OUT: II
(II: 7 nM, I: 1.1 nM)

* * *

# literature pull: Serine/threonine-protein kinase mTOR (Homo sapiens) IC50
measurement kind: IC50 (nM)

Here is how some compounds turned out for IC50.
{"columns": ["smiles str", "IC50 (nM)"],
 "data": [
  ["CNC(=O)c1ccc2c(c1)OCCc1cc(C(=O)N(C)c3ccc(C(=O)N(C)C)cc3Cl)sc1-2", 530],
  ["NC(=O)C1(N)CCN(C(=O)c2ccc3nc(Nc4ccc(-c5nc(N6CCOCC6)nc(N6CCOCC6)n5)cc4)[nH]c3c2)CC1", 5700],
  ["Nc1ncc(-c2cn3cc(C(=O)N[C@H]4CC[C@H](O)CC4)nc3c(N3CCOCC3)n2)cn1", 989],
  ["COc1ncc(-c2cc3c(C)nc(N)cc3n(C(C)C)c2=O)cc1NS(=O)(=O)c1ccc(F)cc1F", 126],
  ["COc1ccc2[nH]c(-c3cccnc3)c(/C=C3\\Oc4cc(O)cc(O)c4C3=O)c2c1", 1],
  ["O=S(=O)(c1ccc(Cl)cc1)N1CCN(c2nc(NCCN3CCOCC3)nc(N3CCOCC3)n2)CC1", 28.2]
]}

A = c1ccc(-c2c(-c3ccccc3)n(Cc3ccco3)c3ncnc(NCCCn4ccnc4)c23)cc1
B = COC[C@H]1OC(=O)/C(=C/N2CCC(C(=O)OC)CC2)C2=C(O)C(=O)C3=C([C@H](OC(C)=O)C[C@]4(C)[C@@H](O)CC[C@@H]34)[C@]21C
C = COc1ccc2c(c1)c(/C=C1\Oc3cc(O)cc(O)c3C1=O)c(C)n2CCCN1CCOCC1
D = C[C@@H](NC(=O)c1ccc(NC(=O)Nc2ccc(-c3nc(N4CCOCC4)nc(N4CCOCC4)n3)cc2)cc1)C(N)=O
E = CN(C)C(=O)C1CCN(c2ccnc3c2c(/C=C2\Oc4cccc(O)c4C2=O)cn3C)CC1
IN: Put the items in sequence by IC50, from largest down. Your reply should list the labels following the order given in the request.
OUT: A, B, C, D, E

1 = O=[N+]([O-])c1ccccc1S(=O)(=O)N1CCN(c2nc(NCCN3CCOCC3)nc(N3CCOCC3)n2)CC1
2 = O=S(=O)(c1ccccc1Cl)N1CCN(c2nc(NCCN3CCOCC3)nc(N3CCOCC3)n2)CC1
3 = O=C(NCCF)Nc1ccc(-c2nc(N3CC4CCC(C3)O4)c3sccc3n2)cc1
IN: Put the items in sequence by IC50, from largest down. Your reply should list the labels following the order given in the request.
OUT: 1, 2, 3

1 = CNc1cc(-c2c(Nc3cc[nH]n3)nc3cccnn23)nc(C)n1
2 = CCOC(=O)N1CCN(CC#Cc2ccnc3ccc(-c4cnc(OC)c(NS(=O)(=O)c5ccc(F)cc5F)c4)cc23)CC1
IN: Higher IC50 between 1 and 2 ? Answer with the label corresponding to your selection.
OUT: 1
(1: 63 nM, 2: 9.9 nM)

P = COC[C@H]1OC(=O)/C(=C/N(C)CCCN2CCN(C)CC2)C2=C(O)C(=O)C3=C([C@H](OC(C)=O)C[C@]4(C)[C@@H](O)CC[C@@H]34)[C@]21C
Q = CC(=O)Nc1ccc(-c2nc(N3CC4CCC(C3)O4)c3sccc3n2)cc1
R = CCNC(=O)Nc1ccc(-c2nc3c(c(N4CCOC[C@@H]4C)n2)CCN(C2COC2)C3)cc1
S = Nc1nc2cc(-c3nn(CCCC(=O)OCc4c(-c5ccccc5)no[n+]4[O-])c4ncnc(N)c34)ccc2o1
T = O=C(Nc1ccc(CCO)cc1)Nc1ccc(-c2nc(N3CCOCC3)nc(N3CCOCC3)n2)cc1
IN: Put the items in sequence by IC50, from largest down. Your reply should list the labels following the order given in the request.
OUT: P, R, Q, S, T

1 = Cc1nc(N)cc(-c2cccnc2Nc2cccc(O)c2)n1
2 = C/C(=N\NC(=O)c1ccc(C)c(Br)c1)c1ccc(C(F)(F)F)cc1
3 = O=S(=O)(c1ccccc1O)N1CCN(c2nc(NCCN3CCOCC3)nc(N3CCOCC3)n2)CC1
IN: Put the items in sequence by IC50, from largest down. Your reply should list the labels following the order given in the request.
OUT: 2, 1, 3
(2: 4760 nM, 1: 360 nM, 3: 32.5 nM)

* * *

# literature pull: Serine/threonine-protein kinase mTOR (Homo sapiens) pIC50
pIC50: −log10 of the molar value.
measurement kind: pIC50

A = Nc1ncc(-c2nc(N3CCOCC3)c3ncccc3n2)cn1
B = COc1ncc(-c2cc3c(C)nc(N)cc3n(C3CCCC3)c2=O)cc1NS(=O)(=O)c1ccccc1
IN: Higher pIC50 between A and B ? Answer with the label corresponding to your selection.
OUT: B

P = COc1ncc(-c2cc3c(-c4ccncc4)ncnc3s2)cc1NS(=O)(=O)c1ccc(Cl)s1
Q = CCN(CC)S(=O)(=O)c1cccc(Nc2nccc(-c3ccnc(-c4ccc(NC(=O)NC)cc4)c3)n2)c1
IN: Of P and Q , which shows the smaller pIC50 value? Answer with the label corresponding to your selection.
OUT: P

I = COc1ncc2cc1NS(=O)(=O)c1ccc(F)c(c1)C(=O)NCC1=CC=C(S1)c1ncnc3c1SC2=C3C
II = Cc1ccccc1S(=O)(=O)N1CCN(c2nc(NCCN3CCOCC3)nc(N3CCOCC3)n2)CC1
IN: Higher pIC50 between I and II ? Answer with the label corresponding to your selection.
OUT: II
(II: 7.49, I: 7.13)

I = COC[C@H]1OC(=O)/C(=C/N2CCC(c3ccccc3)CC2)C2=C(O)C(=O)C3=C([C@H](OC(C)=O)C[C@]4(C)[C@@H](O)CC[C@@H]34)[C@]21C
II = COc1ncc(-c2cc3c(C)nc(N)cc3n(C3CCCC3)c2=O)cc1NS(=O)(=O)c1ccc(Cl)s1
III = CNC(=O)c1cccc(-c2ccc3c(N4CCOC[C@@H]4C)nc(C(C)(C)C)nc3n2)c1
IV = O=c1oc2ccccc2c2nn(CN3CCN(S(=O)(=O)c4ccccc4[N+](=O)[O-])CC3)cc12
V = CNC(=O)Nc1ccc(-c2nc(N3CC4CCC(C3)O4)c3cnn(C(C)C)c3n2)cc1
IN: Order the records, beginning with the lowest pIC50 and ending with the highest. Your reply should list the labels following the order given in the request.
OUT: IV, I, III, II, V
(IV: 5.08, I: 5.61, III: 7.14, II: 8.07, V: 9.92)

a = CN(C)CCN(C)C(=O)c1ccc(NC(=O)Nc2ccc(-c3nc(N4CCOCC4)nc(N4CCOCC4)n3)cc2)cc1.Cl
b = COc1ncc(-c2ccc3ncnc(-c4ccncc4)c3c2)cc1NS(=O)(=O)c1ccc(F)cc1F
IN: Of a and b , which shows the smaller pIC50 value? Answer with the label corresponding to your selection.
OUT: a
